test system: HCV Con1 subgenomic replicon in Huh-7 cells (NK/luc-ubi-neo); assay: HCV replicon assay (luciferase reporter); type: cell-based; conditions: anti-HCV activity, class symbols; read-out: Range of EC50 in HCV replicon assay
pEC50: −log10 of the molar value.
quantity: pEC50

State recorded pEC50 for all listed compounds.
1. N#Cc1c(Nc2ccnc(Cl)c2)s[nH]c1=O
2. COc1ccccc1Nc1s[nH]c(=O)c1C#N
3. N#Cc1c(Nc2ccc(C(F)(F)F)cn2)s[nH]c1=O
4. N#Cc1c(Nc2cc(Cl)c(Cl)c(Cl)c2)s[nH]c1=O

output:
4.30 to 5.00
4.30 to 5.00
4.30 to 5.00
> 6.00
